Tested on: MS2 coat protein
assay.details: apparent KD of MS2 coat protein; designed switch direction (-1 OFF switch, 1 ON switch): 1; higher = weaker reporter binding
test.parameters: Eterna round: R95; input ligand: microRNA oligo, concentration not stated
endpoint.label: apparent KD of MS2 coat protein (nM)
Quick reminder: number only, in nM, skip the unit.

Form: sequence = GGUCCAGCCUGAGCUGGACAAAAGCAUGUACAUGAGGAUCACCCAUGUUCAUGUACAAGCUUUUUGCUCGUCUUAAG [salish99_208a_r3_037] (puzzle: Sensor for hsa-mir-208a) ; apparent KD of MS2 coat protein = 18

get_value(item= AAAAAACAUGAGGAUCACCCAUGUCAAAAGACAUGAGGAUAUGUACAGACUUCGGUCUGUACAGAAGGCAUGAAAA [salish99_ss1_r3_093] (puzzle: Same State 1) , readout=apparent KD of MS2 coat protein) returns 570

Form: sequence = AGUCCAGCGAAAGCUGGACAAAAGCAUGUACAUGAGGAUCACCCAUGUUCAUGUACAAGUUUUUUGCUCGUUUUAAA [JL mod - D95 - 18] (puzzle: Sensor for hsa-mir-208a) ; apparent KD of MS2 coat protein = 10.3

Sourced from the supplement of paper PMC9170038
